Tested on: conscious mice
Assay: Prolongation of the bleeding time (mouse tail)
Type: in vivo
Details: po, 10 mg/kg orally, after 1 hour, compared to control group, read-out: Prolongation of the bleeding time in % after one hour
So basically, if change in vivo at 10 mg/kg comes in under 30% it's class 1, and if it's 30% or more it's class 0.

Just wondering, is change in vivo at 10 mg/kg of O=C1CCc2cc(OCCCCSc3ccccn3)ccc2N1 below 30%? class 0

Just wondering, is change in vivo at 10 mg/kg of O=C1CCc2cc(OCCCC[S+]([O-])C3CCCCC3)ccc2N1 (stereo not shown) below 30%? class 1

Just wondering, is change in vivo at 10 mg/kg of Cc1cc(=O)[nH]c2ccc(OCCCC[S+]([O-])c3ccccc3)cc12 (stereo not shown) below 30%? class 0

Just wondering, is change in vivo at 10 mg/kg of O=C1CCc2cc(OCCCC[S+]([O-])c3ccc(Cl)c(Cl)c3)ccc2N1 (stereo not shown) below 30%? class 0

Just wondering, is change in vivo at 10 mg/kg of O=c1ccc2cc(OCCCC[S+]([O-])c3ccc(Cl)c(Cl)c3)ccc2[nH]1 (stereo not shown) below 30%? class 1

Just wondering, is change in vivo at 10 mg/kg of O=C1CCc2cc(OCCCC[S+]([O-])c3ccccc3)ccc2N1 (stereo not shown) below 30%? class 0

Just wondering, is change in vivo at 10 mg/kg of O=C1CCc2cc(OCCCC[S+]([O-])c3ccccn3)ccc2N1 (stereo not shown) below 30%? class 0

Just wondering, is change in vivo at 10 mg/kg of O=c1ccc2cc(OCCCCS(=O)(=O)c3ccccn3)ccc2[nH]1 below 30%? class 1

Just wondering, is change in vivo at 10 mg/kg of O=C1CCc2cc(OCCCC[S+]([O-])c3ccc4ccccc4c3)ccc2N1 (stereo not shown) below 30%? class 1

Just wondering, is change in vivo at 10 mg/kg of O=C1CCc2cc(OCCCC[S+]([O-])c3ccc(Cl)cc3)ccc2N1 (stereo not shown) below 30%? class 0
